- target_or_system: ACAT 2 (Mus musculus, UniProt O88908)
- Construct: The source of ACAT 2 enzyme used was a membrane fraction derived from mouse liver microsome; from tissue; host or cells: mouse liver (microsome fraction)
- Sequence (O88908 1-525): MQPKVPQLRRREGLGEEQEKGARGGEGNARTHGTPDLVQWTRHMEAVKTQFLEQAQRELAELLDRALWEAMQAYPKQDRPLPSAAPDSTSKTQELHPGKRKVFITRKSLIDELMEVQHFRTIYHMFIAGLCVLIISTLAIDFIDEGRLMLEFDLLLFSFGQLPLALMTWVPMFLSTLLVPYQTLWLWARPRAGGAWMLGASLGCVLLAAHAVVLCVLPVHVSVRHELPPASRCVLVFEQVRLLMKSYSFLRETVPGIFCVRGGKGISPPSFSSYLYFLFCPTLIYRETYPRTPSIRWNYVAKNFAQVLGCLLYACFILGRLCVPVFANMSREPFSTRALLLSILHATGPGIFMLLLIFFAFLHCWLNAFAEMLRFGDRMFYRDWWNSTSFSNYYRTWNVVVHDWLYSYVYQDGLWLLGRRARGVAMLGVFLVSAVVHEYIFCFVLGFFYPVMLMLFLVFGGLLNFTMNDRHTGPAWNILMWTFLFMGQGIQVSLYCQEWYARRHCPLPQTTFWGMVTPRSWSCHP
- assay_name: ACAT-inhibiting activity, mouse liver microsome membrane fraction, [14C]oleoyl-CoA
- Format: biochemical
- experimental_parameters: mouse liver microsome, 5 minutes at 37° C.
The entries below are paired with their reported IC50.
property: IC50

* CC(=O)OCC1(C)C2C[C@H](OC(=O)c3ccc(Cl)cc3)[C@@]3(C)Oc4cc(-c5cccnc5)oc(=O)c4[C@H](O)C3[C@@]2(C)CC[C@@H]1OC(C)=O (stereo partly shown) | < 10 nM
* CC(=O)OCC1(C)C2C[C@H](OC(=O)CCN3CCCCC3)[C@@]3(C)Oc4cc(-c5cccnc5)oc(=O)c4[C@H](O)C3[C@@]2(C)CC[C@@H]1OC(C)=O (stereo partly shown) | 100 to 1000 nM
* CC(=O)OCC1(C)C2C[C@H](OC(=O)c3ccc(Br)c(F)c3)[C@@]3(C)Oc4cc(-c5cccnc5)oc(=O)c4[C@H](O)C3[C@@]2(C)CC[C@@H]1OC(C)=O (stereo partly shown) | < 10 nM
* CC(=O)OCC1(C)C2C[C@H](OC(=O)c3ccc(Br)cc3F)[C@@]3(C)Oc4cc(-c5cccnc5)oc(=O)c4[C@H](O)C3[C@@]2(C)CC[C@@H]1OC(C)=O (stereo partly shown) | < 10 nM

* * *

# IC50 listing for each entry below
- target_or_system: ACAT 2 (Mus musculus)
- Construct: The source of ACAT 2 enzyme used was a membrane fraction derived from mouse liver microsome; from tissue; host or cells: mouse liver (microsome fraction)
- assay_name: ACAT-inhibiting activity, mouse liver microsome membrane fraction, [14C]oleoyl-CoA
- Format: biochemical
property: IC50

* COCOCC(=O)O[C@H]1CC2C(C)(COC(C)=O)[C@@H](OC(C)=O)CC[C@]2(C)C2[C@@H](O)c3c(cc(-c4cccnc4)oc3=O)O[C@@]21C (stereo partly drawn) [PRD 106] | 0.1 to 1 µM
* CC(=O)OCC1(C)C2C=C[C@@]3(C)Oc4cc(-c5cccnc5)oc(=O)c4[C@H](O)C3[C@@]2(C)CC[C@@H]1OC(C)=O (stereo partly drawn) [PRD 061, 7,8-olefinpyripyropene A] | 0.1 to 1 µM
* CC(=O)OCC1(C)C2C[C@@H](Cl)[C@@]3(C)Oc4cc(-c5cccnc5)oc(=O)c4[C@H](O)C3[C@@]2(C)CC[C@@H]1OC(C)=O (stereo partly drawn) [PRD 065] | 0.1 to 1 µM
* CC(=O)OCC1(C)C2C[C@H](OC(=O)C3CCCC3)[C@@]3(C)Oc4cc(-c5cccnc5)oc(=O)c4[C@H](O)C3[C@@]2(C)CC[C@@H]1OC(C)=O (stereo partly drawn) [PRD 075] | 0.01 to 0.1 µM
* CC(=O)OCC1(C)C2C[C@H](OC(=O)Cn3cnnn3)[C@@]3(C)Oc4cc(-c5cccnc5)oc(=O)c4[C@H](O)C3[C@@]2(C)CC[C@@H]1OC(C)=O (stereo partly drawn) [PRD 092] | 0.1 to 1 µM
* CC(=O)OCC1(C)C2C[C@H](OC(=O)C3CCCCC3)[C@@]3(C)Oc4cc(-c5cccnc5)oc(=O)c4[C@H](O)C3[C@@]2(C)CC[C@@H]1OC(C)=O (stereo partly drawn) [PRD 021] | < 0.01 µM

* * *

List of IC50 values.
- target_or_system: ACAT 2 (Mus musculus)
- Construct: The source of ACAT 2 enzyme used was a membrane fraction derived from mouse liver microsome; from tissue; host or cells: mouse liver (microsome fraction)
- assay_name: ACAT-inhibiting activity, mouse liver microsome membrane fraction, [14C]oleoyl-CoA
- Format: biochemical
- experimental_parameters: mouse liver microsome, 5 minutes at 37° C.
property: IC50

• COc1ccc(C(=O)O[C@H]2CC3C(C)(COC(C)=O)[C@@H](OC(C)=O)CC[C@]3(C)C3[C@@H](O)c4c(cc(-c5cccnc5)oc4=O)O[C@@]32C)cc1 (stereo partly drawn) [PRD 003] = < 10 nM
• CC(=O)OCC1(C)C2C[C@H](OC(=O)c3ccc(C#N)cc3)[C@@]3(C)Oc4cc(-c5cccnc5)oc(=O)c4[C@H](O)C3[C@@]2(C)CC[C@@H]1OC(C)=O (stereo partly drawn) [PRD 017] = 10 to 100 nM
• COc1ccc(CCC(=O)O[C@H]2CC3C(C)(COC(C)=O)[C@@H](OC(C)=O)CC[C@]3(C)C3[C@@H](O)c4c(cc(-c5cccnc5)oc4=O)O[C@@]32C)cc1 (stereo partly drawn) [PRD 084] = 10 to 100 nM
• COCCOCO[C@H]1CC2C(C)(COC(C)=O)[C@@H](OC(C)=O)CC[C@]2(C)C2[C@@H](O)c3c(cc(-c4cccnc4)oc3=O)O[C@@]21C (stereo partly drawn) [PRD 055] = 10 to 100 nM
• CC(=O)OCC1(C)C2C[C@H](OC(=O)c3ccc([N+](=O)[O-])cc3)[C@@]3(C)Oc4cc(-c5cccnc5)oc(=O)c4[C@H](O)C3[C@@]2(C)CC[C@@H]1OC(C)=O (stereo partly drawn) [PRD 029] = 10 to 100 nM
• CC(=O)OCC1(C)C2C[C@H](OC(=O)c3cnccn3)[C@@]3(C)Oc4cc(-c5cccnc5)oc(=O)c4[C@H](O)C3[C@@]2(C)CC[C@@H]1OC(C)=O (stereo partly drawn) [PRD 096] = 100 to 1000 nM
• COc1ccc(CC(=O)O[C@H]2CC3C(C)(COC(C)=O)[C@@H](OC(C)=O)CC[C@]3(C)C3[C@@H](O)c4c(cc(-c5cccnc5)oc4=O)O[C@@]32C)cc1 (stereo partly drawn) [PRD 087] = 100 to 1000 nM
• CC12COC(c3ccccc3)O[C@H]1CC[C@@]1(C)C2C[C@H](OC(=O)c2ccc(Br)cc2)[C@@]2(C)Oc3cc(-c4cccnc4)oc(=O)c3[C@H](O)C12 (stereo partly drawn) [PRD 053] = 10 to 100 nM
• CC(=O)OCC1(C)C2C[C@H](OC(=O)Cn3cc(C)c(=O)[nH]c3=O)[C@@]3(C)Oc4cc(-c5cccnc5)oc(=O)c4[C@H](O)C3[C@@]2(C)CC[C@@H]1OC(C)=O (stereo partly drawn) [PRD 090] = 100 to 1000 nM
• CC(=O)OCC1(C)C2C[C@H](OC(=O)c3cccc(I)c3)[C@@]3(C)Oc4cc(-c5cccnc5)oc(=O)c4[C@H](O)C3[C@@]2(C)CC[C@@H]1OC(C)=O (stereo partly drawn) [PRD 005, 7-m-iodobenzoyl-7-deacetylpyripyropene A] = 10 to 100 nM
• CC12COC(c3ccccc3)O[C@H]1CC[C@@]1(C)C2C[C@H](OC(=O)c2ccc(C#N)cc2)[C@@]2(C)Oc3cc(-c4cccnc4)oc(=O)c3[C@H](O)C12 (stereo partly drawn) [PRD 041] = 10 to 100 nM
• COc1cccc(C(=O)O[C@H]2CC3C(C)(COC(C)=O)[C@@H](OC(C)=O)CC[C@]3(C)C3[C@@H](O)c4c(cc(-c5cccnc5)oc4=O)O[C@@]32C)c1 (stereo partly drawn) [PRD 002] = 10 to 100 nM
• CC(=O)OCC1(C)C2C[C@H](OC(=O)c3ccc(N)cc3)[C@@]3(C)Oc4cc(-c5cccnc5)oc(=O)c4[C@H](O)C3[C@@]2(C)CC[C@@H]1OC(C)=O (stereo partly drawn) [PRD 032] = 100 to 1000 nM
• CC(=O)OCC1(C)C2C[C@H](OC(=O)CCCCO)[C@@]3(C)Oc4cc(-c5cccnc5)oc(=O)c4[C@H](O)C3[C@@]2(C)CC[C@@H]1OC(C)=O (stereo partly drawn) [PRD 093] = 100 to 1000 nM
• CC12CO[Si](C(C)(C)C)(C(C)(C)C)O[C@H]1CC[C@@]1(C)C2C[C@H](OC(=O)c2ccc(C#N)cc2)[C@@]2(C)Oc3cc(-c4cccnc4)oc(=O)c3[C@H](O)C12 (stereo partly drawn) [PRD 059] = 100 to 1000 nM
• CC12COC(c3ccccc3)O[C@H]1CC[C@@]1(C)C2C[C@H](OC(=O)c2ccccc2F)[C@@]2(C)Oc3cc(-c4cccnc4)oc(=O)c3[C@H](O)C12 (stereo partly drawn) [PRD 046] = 10 to 100 nM
• CC(=O)OCC1(C)C2C[C@H](OC(=O)c3cccc4ccccc34)[C@@]3(C)Oc4cc(-c5cccnc5)oc(=O)c4[C@H](O)C3[C@@]2(C)CC[C@@H]1OC(C)=O (stereo partly drawn) [PRD 038, 7-1-naphthoyl-7-deacetylpyripyropene A] = 10 to 100 nM
• COc1ccc(C(=O)O[C@H]2CC3C4(C)COC(c5ccccc5)O[C@H]4CC[C@]3(C)C3[C@@H](O)c4c(cc(-c5cccnc5)oc4=O)O[C@@]32C)cc1 (stereo partly drawn) [PRD 044] = 10 to 100 nM
• CC(=O)OCC1(C)C2C[C@H](OC(=O)c3cccc(C#N)c3)[C@@]3(C)Oc4cc(-c5cccnc5)oc(=O)c4[C@H](O)C3[C@@]2(C)CC[C@@H]1OC(C)=O (stereo partly drawn) [PRD 016] = 10 to 100 nM
• COc1ccc(-n2nnnc2S[C@@H]2CC3C(C)(COC(C)=O)[C@@H](OC(C)=O)CC[C@]3(C)C3[C@@H](O)c4c(cc(-c5cccnc5)oc4=O)O[C@@]32C)cc1 (stereo partly drawn) [PRD 066] = 100 to 1000 nM
• CC12COC(c3ccccc3)O[C@H]1CC[C@@]1(C)C2C[C@H](OC(=O)c2cccc(Br)c2)[C@@]2(C)Oc3cc(-c4cccnc4)oc(=O)c3[C@H](O)C12 (stereo partly drawn) [PRD 052] = 10 to 100 nM

Data credit: patent US8519128B2
